Recorded measurements of IC50, one per entry
target: Tyrosine-protein kinase BTK (Homo sapiens, UniProt Q06187); experiment: Inhibition of BTK (unknown origin) assessed as reduction in phosphorylation of coumarin and fluorescein-labeled FRET peptide substrate incubated for 1 hr by Z-Lyte assay
Sequence (Q06187 whole entry): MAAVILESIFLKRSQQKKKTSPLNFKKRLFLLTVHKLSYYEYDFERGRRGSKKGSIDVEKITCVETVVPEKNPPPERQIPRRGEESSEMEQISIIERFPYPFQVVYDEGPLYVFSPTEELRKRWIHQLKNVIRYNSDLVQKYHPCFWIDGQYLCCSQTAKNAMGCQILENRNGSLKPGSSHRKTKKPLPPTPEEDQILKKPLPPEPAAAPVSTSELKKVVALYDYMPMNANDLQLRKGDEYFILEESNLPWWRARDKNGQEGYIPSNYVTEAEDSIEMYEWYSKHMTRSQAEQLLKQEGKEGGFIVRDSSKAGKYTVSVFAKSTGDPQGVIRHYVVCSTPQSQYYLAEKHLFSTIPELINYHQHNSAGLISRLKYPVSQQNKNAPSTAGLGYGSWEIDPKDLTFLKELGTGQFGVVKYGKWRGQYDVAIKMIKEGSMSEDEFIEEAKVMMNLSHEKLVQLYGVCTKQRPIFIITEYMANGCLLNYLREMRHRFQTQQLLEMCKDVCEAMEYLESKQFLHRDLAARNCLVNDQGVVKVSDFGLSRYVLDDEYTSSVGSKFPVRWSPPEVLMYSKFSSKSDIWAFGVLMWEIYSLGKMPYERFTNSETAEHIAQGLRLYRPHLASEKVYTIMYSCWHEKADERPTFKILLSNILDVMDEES
Respond with the bare value in nM.

Some molecules with known IC50 results, for comparison:
> print(dat)
                            molecule.smiles  uom  test.result
1  C=CC(=O)N1CCN(c2ncnc(N)c2C(=O)c2ccc(Oc3ccccc3)cc2)CC1   nM          880
2  C=CC(=O)N1CCC[C@@H](Nc2ncnc(N)c2C(=O)c2ccc(OCC)cc2)C1   nM         1800
3  C=CC(=O)N1CCN(c2ncnc(N)c2C(=O)c2ccc(OCC)cc2)CC1   nM         1320
4  C=CC(=O)N1CCC(Nc2ncnc(N)c2C(=O)c2ccc(Oc3ccccc3)cc2)CC1   nM         1070

Now consider a different molecule.
q: Name the reported IC50 value associated with the molecule `C=CC(=O)N1CCC[C@@H](Nc2ncnc(N)c2C(=O)c2ccc(Oc3ccccc3)cc2)C1`
a: 70

----------
target: Tyrosine-protein kinase BTK (Homo sapiens, UniProt Q06187); experiment: Inhibition of BTK (unknown origin)
MEASURE_NAME: IC50 (nM)
Number only, in nM; omit the unit.

> print(dat)
                                   molecule  measure.name  uom  test.result
1  C=CC(=O)N1CCC[C@@H](n2c(=O)n(-c3ccc(Oc4ccccc4)cc3)c3c(N)ncnc32)C1          IC50   nM         23.9

Turning to the following molecule.
q: // lookup IC50 for C=CC(=O)Nc1cccc(Oc2nc(Nc3ccc(N4CCN(C)CC4)cc3)nc3ccsc23)c1 [OLMUTINIB]
a: 1
